Attribute: log10 IC50
Target Or Test System: Mcl-1 protein (Homo sapiens)
Sequence (Q07820 whole entry): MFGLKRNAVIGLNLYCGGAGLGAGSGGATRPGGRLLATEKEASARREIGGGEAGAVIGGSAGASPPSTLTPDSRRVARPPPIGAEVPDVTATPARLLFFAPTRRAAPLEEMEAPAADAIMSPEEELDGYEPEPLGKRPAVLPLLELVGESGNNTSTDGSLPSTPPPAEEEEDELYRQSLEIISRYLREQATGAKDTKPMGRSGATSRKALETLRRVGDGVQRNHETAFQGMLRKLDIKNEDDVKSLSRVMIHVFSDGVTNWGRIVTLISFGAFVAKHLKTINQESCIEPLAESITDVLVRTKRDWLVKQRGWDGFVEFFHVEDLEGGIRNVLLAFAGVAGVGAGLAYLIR
Protocol: Inhibition of Mcl-1 by the fluorescence polarisation technique (Method 1 or Method 2)
Assay type: binding
Experimental Setup: fluorescence polarisation, Fluorescein labelled ligand; Method 1 (not underlined) or Method 2 (underlined); read-out: IC50 (μM) Mcl-1 FP
Use the decimal logarithm of IC50 (µM).

Solved entries (count: 4):
CCc1sc2ncnc(NC(Cc3ccccc3)C(=O)O)c2c1-c1cccc2cnn(C)c12 (centres unmarked) [Example 88]	0.09
CCc1sc2ncnc(N[C@H](CC3CC3)C(=O)O)c2c1-c1cccc2ccccc12 [Example 159]	0.25
CCc1sc2ncnc(NC(Cc3ccccc3)C(=O)O)c2c1-c1cccc2c1c(Cl)cn2CCN1CCN(C)CC1 (centres unmarked) [Example 238]	0.44
CCc1sc2ncnc(N[C@H](Cc3ccccn3)C(=O)O)c2c1-c1cccc2ccccc12 [Example 191]	-0.77

Now, please, on to the next molecule.
Enquiry: Can you share its log10 IC50? I mean this molecule: CCc1sc2ncnc(N[C@H](Cc3ccccc3)C(=O)O)c2c1-c1cccc2ncccc12 [Example 80]
Return: -0.31
